Tested on: SW620, human metastatic colon cancer cell line
EXPERIMENTAL_PROTOCOL: MTT assay, cytotoxicity in SW620
Type: cell-based
CONDITION_PARAMETERS: SI = IC50 HaCaT / IC50 SW620
Procedure: The human cell lines SW480 (primary colon cancer), SW620 (lymph node metastatic colon cancer from the same patient as primary cancer cells), PC3 (metastatic prostate cancer), and HaCaT (immortalized keratinocytes) were obtained from the American Type Culture Collection (ATCC, Rockville, USA). […] The cell viability was assessed by using of MTT salt [3-(4,5-dimethylthiazol-2-yl)-2,5-diphenyltetrazolium bromide] converted by mitochondrial dehydrogenase, occurring in living cells. […]

COMPOUND	SW620 SI (selectivity index)
C=C(C)[C@@H]1CC[C@]2(C(=O)OCCCCCCOC(=O)c3c(CC[C@@H](C)[C@H](O)[C@H](C)C(=O)[C@H](CC)[C@H]4O[C@](CC)([C@H]5CC[C@](O)(CC)[C@H](C)O5)C[C@@H]4C)ccc(C)c3O)CC[C@]3(C)[C@H](CC[C@@H]4[C@@]5(C)CC[C@H](O)C(C)(C)[C@@H]5CC[C@]43C)[C@@H]12 [Compound 6, LAS–Betulinic Acid Conjugate]	0.4
O=c1[nH]c(=O)n(CCCCCCBr)cc1F	6.2
CC[C@@H](C(=O)[C@@H](C)[C@@H](O)[C@H](C)CCc1ccc(C)c(O)c1C(=O)OCCOCCn1cc(F)c(=O)[nH]c1=O)[C@H]1O[C@](CC)([C@H]2CC[C@](O)(CC)[C@H](C)O2)C[C@@H]1C [Compound 10, LAS–5-Fluorouracil Conjugate]	1.1
O=c1[nH]c(=O)n(CCOCCBr)cc1F	2.2
CC[C@@H](C(=O)[C@@H](C)[C@@H](O)[C@H](C)CCc1ccc(C)c(O)c1C(=O)OCCCCn1cc(F)c(=O)[nH]c1=O)[C@H]1O[C@](CC)([C@H]2CC[C@](O)(CC)[C@H](C)O2)C[C@@H]1C [Compound 8, LAS–5-Fluorouracil Conjugate]	2.4
CC[C@@H](C(=O)[C@@H](C)[C@@H](O)[C@H](C)CCc1ccc(C)c(O)c1C(=O)OCCCCCCBr)[C@H]1O[C@](CC)([C@H]2CC[C@](O)(CC)[C@H](C)O2)C[C@@H]1C	1.5
CC[C@@H](C(=O)[C@@H](C)[C@@H](O)[C@H](C)CCc1ccc(C)c(O)c1C(=O)OC[C@H]1O[C@@H](n2cc(F)c(=O)[nH]c2=O)C[C@@H]1O)[C@H]1O[C@](CC)([C@H]2CC[C@](O)(CC)[C@H](C)O2)C[C@@H]1C [Compound 11, LAS–Floxuridine Conjugate]	2.6
CC[C@@H](C(=O)[C@@H](C)[C@@H](O)[C@H](C)CCc1ccc(C)c(O)c1C(=O)OCc1cc(=O)c(O)co1)[C@H]1O[C@](CC)([C@H]2CC[C@](O)(CC)[C@H](C)O2)C[C@@H]1C [Compound 7, LAS–Kojic Acid Conjugate]	0.6
CC[C@@H](C(=O)[C@@H](C)[C@@H](O)[C@H](C)CCc1ccc(C)c(O)c1C(=O)O)[C@H]1O[C@](CC)([C@H]2CC[C@](O)(CC)[C@H](C)O2)C[C@@H]1C	2.6
